Study System: T1, terbium-labelled SNAP-CXCR4 on HEK-293 cells (Cisbio C1TT1CXCR4) (human, UniProt P61072 1-352 (Pan troglodytes entry), terbium label on the SNAP tag)
T1 construct: Bought assay-ready cells; also called CXCR4 expressing cells; not shown: SNAP tag
T1 sequence (P61072 whole entry): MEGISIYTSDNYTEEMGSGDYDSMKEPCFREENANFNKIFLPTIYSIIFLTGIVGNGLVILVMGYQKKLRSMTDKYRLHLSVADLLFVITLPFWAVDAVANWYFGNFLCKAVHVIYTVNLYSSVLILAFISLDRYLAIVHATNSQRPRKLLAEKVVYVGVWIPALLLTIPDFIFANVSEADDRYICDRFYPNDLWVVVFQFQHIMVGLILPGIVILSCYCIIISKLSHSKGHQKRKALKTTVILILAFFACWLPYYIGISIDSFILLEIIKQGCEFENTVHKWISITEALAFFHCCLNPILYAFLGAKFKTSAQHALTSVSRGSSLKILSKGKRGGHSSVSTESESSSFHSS
Method Notes: TR-FRET (Tag-lite) competition with AlexaFluor 647-CXCL12 on terbium-labelled SNAP-CXCR4 HEK-293 cells
The reader will find reported IC50 values listed item by item below.
Respond with the bare value in nM.

# count of solved cases: 2
IC50 recorded for this binder, CL-82556 (antibody, human IgG4 S228P, kappa, V domains shown, Tested in human IgG4-PE format) VH: QVQLVESGGGVVQPGRSLRLSCAASGFTFYSYGMHWVRQAPGKGLEWVAVIWYGGTNKYYADSVKGRFTISRDNSKNTLYLQMNSLTAEDTAVYYCARGQLERRRGGLNIWGQGTMVTVSS VL: DIQMTQSPSSLSASVGDRVTITCRASQGVRDDLGWYQQKPGKAPKRLIYAASNLQSGVPSRFSGSGSGTEFTLTIGSLQPEDFATYYCLQHNSYPFTFGPGTKVDIKR , is 0.7

IC50 recorded for this binder, CL-82517 (antibody, human IgG4 S228P, kappa, V domains shown, Tested in human IgG4-PE format) VH: EVQLVESGGGLVKPGGSLRLSCAASGFTFSSYSMNWVRQAPGKGLEWVSSISSSRRYIYYADSVKGRFTISRDNAKNSLYLQMNSLRAEDTAVYYCARAYGQVAPYYYYGMDVWGQGTTVTVSS VL: AIQLTQSPSSLSASVGDRVTITCRASQGISSALAWYQQKPGKAPKLLIYDASSLESGVPSRFSGSGSGTDFTLTISSLQPEDFATYYCQQFNSYPLTFGGGTKVEIKR , is 1.06

# evaluate next
IC50 recorded for this binder, CL-82551 (antibody, human IgG4 S228P, kappa, V domains shown, Tested in human IgG4-PE format) VH: QVQLVQSGAEVKKPGASVKVSCKASGYTFTSYDINWVRQATGQGLEWMGWMNPNSGNTGYAQKFQGRVTMTRNTSISTAYMELSSLRSEDTAVYYCARGRGYYGSGSHYRGYYYYGLDVWGQGTTVTVSS VL: DIQMTQSPSTLSASVGDRVTITCRASQSISSWLAWYQQKPGKAPKVLIYKASSLKSGVPSRFSGSGSGTEFTLTVSSLQPDDFATYYCQQYNSYSWTFGQGTKVEIKR , is 1.21
